From: the supplement of paper PMC10065799

- Test Target: c-Src SH2
- Assay Procedure: SH2 binding enrichment of the phosphorylated peptide, bacterial display (enrichment ratio); higher = better substrate or ligand; peptides without Tyr show the background
Measured Endpoint: SH2 binding enrichment

1) PSARTYCFKQE [KLHDC9_Y175_YF] : 0.632
2) KRTFEYEAEKN [DENND2B_Y396_D399E] : 0.535
3) FQGGTYSKACT [FGG_Y380_S384C_YF] : 0.783
4) PTKNDYWAMLA [WWOX_Y287] : 0.721
5) RLLRGHDQFAF [HLA-B_Y137_YF] : 0.748
6) KRGASYILKLA [SERPINB1_Y84] : 1.24
7) KPIETYFSKNY [PLP1_Y50_L46P] : 0.599
8) ALIKAYDKAVA [SMN1_Y43] : 0.571
9) LARDMHDKEFF [MET_Y1230_Y1230H_YF] : 0.423
10) PSRKDYETYQS [CTNND2_Y1154_P1159S] : 0.746
11) RKETFYILSCR [GUCY2C_Y681_T682I] : 0.519
12) ALARKYHGGGG [HBB_Y146_H144R] : 0.536
13) RAMRRYLEWGE [ERBB3_Y680_R683W] : 0.437
14) KVKPIYLHTQG [AR_Y916_F917L] : 1.65
15) RAILLYEYVGK [NATD1_Y45_V42I] : 1.55
16) SVTCMYSPALN [TP53_Y126_T125M] : 0.457
17) SGVVPYEPPEV [TP53_Y220_V216G] : 0.49
18) CKRQFYLYKGK [RSPO4_Y112] : 0.856
19) VYLGAYDRFLP [SLC22A5_Y486] : 0.727
20) SGGSSYGSGGC [KRT1_Y532_G537C] : 0.538
21) MKVPLYETPAG [PGM5_Y358_V357L] : 1.08
22) EVASVYESFQP [MAVS_Y92_Q93E_YF] : 0.561
23) ATARPYRPYII [LRP5_Y1528] : 0.784
24) KTSGNYLAVTG [WDR19_Y28] : 0.427
25) GFSRHYEDGFP [CTNND1_Y217_YF] : 1.44
26) NFRNTYVNANE [KCNH2_Y475_T473N] : 2.64

* * *

- Tested on: AncSZ
- Assay Procedure: phosphorylation enrichment, bacterial display (enrichment ratio); higher = better substrate or ligand; peptides without Tyr show the background
Measured Endpoint: phosphorylation enrichment

1) GEFFRYLAEVA [YWHAG_Y133_D129E_YF] : 0.873
2) SGGSSYGSGGC [KRT1_Y532_G537C] : 0.681
3) VNTMLYEKFTF [TEK_Y1108_T1106M_YF] : 1.29
4) DGMADCSDPSF [CDC5L_Y459_Y459C_YF] : 1.21
5) VAFVYYKSIGP [ADGRL4_Y302] : 1.41
6) ENKGVYVPMSG [IVD_Y277_L279P] : 0.599
7) TLERHYEELQA [SPTBN2_Y834] : 1.04
8) RGRSTYYWPRP [GAGE12J_Y9] : 0.869
9) ETCLAYREKRI [TEKT1_Y118] : 1.07
10) CTTIHYNFVCN [TP53_Y234_M237V_YF] : 0.998

* * *

- Test Target: Grb2 SH2 (UniProt P62993)
- Sequence (P62993 whole entry, looked up): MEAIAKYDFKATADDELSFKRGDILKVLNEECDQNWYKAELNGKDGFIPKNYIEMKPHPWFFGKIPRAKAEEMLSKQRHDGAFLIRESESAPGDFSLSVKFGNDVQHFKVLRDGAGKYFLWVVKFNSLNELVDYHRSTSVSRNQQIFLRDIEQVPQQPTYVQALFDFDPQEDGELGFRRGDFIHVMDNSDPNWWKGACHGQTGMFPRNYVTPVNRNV
- Assay Procedure: SH2 binding enrichment of the phosphorylated peptide, bacterial display (enrichment ratio); higher = better substrate or ligand; peptides without Tyr show the background
Measured Endpoint: SH2 binding enrichment

1. SNKELYEKYMI : 0.705
2. SQQTFYPVSNM [ABCD1_Y181_R182P_YF] : 0.881
3. RLRVVYPWTQR [HBB_Y36_L33R] : 1.06

* * *

- Test Target: Jak2 (UniProt O60674)
- Sequence (O60674 whole entry, looked up): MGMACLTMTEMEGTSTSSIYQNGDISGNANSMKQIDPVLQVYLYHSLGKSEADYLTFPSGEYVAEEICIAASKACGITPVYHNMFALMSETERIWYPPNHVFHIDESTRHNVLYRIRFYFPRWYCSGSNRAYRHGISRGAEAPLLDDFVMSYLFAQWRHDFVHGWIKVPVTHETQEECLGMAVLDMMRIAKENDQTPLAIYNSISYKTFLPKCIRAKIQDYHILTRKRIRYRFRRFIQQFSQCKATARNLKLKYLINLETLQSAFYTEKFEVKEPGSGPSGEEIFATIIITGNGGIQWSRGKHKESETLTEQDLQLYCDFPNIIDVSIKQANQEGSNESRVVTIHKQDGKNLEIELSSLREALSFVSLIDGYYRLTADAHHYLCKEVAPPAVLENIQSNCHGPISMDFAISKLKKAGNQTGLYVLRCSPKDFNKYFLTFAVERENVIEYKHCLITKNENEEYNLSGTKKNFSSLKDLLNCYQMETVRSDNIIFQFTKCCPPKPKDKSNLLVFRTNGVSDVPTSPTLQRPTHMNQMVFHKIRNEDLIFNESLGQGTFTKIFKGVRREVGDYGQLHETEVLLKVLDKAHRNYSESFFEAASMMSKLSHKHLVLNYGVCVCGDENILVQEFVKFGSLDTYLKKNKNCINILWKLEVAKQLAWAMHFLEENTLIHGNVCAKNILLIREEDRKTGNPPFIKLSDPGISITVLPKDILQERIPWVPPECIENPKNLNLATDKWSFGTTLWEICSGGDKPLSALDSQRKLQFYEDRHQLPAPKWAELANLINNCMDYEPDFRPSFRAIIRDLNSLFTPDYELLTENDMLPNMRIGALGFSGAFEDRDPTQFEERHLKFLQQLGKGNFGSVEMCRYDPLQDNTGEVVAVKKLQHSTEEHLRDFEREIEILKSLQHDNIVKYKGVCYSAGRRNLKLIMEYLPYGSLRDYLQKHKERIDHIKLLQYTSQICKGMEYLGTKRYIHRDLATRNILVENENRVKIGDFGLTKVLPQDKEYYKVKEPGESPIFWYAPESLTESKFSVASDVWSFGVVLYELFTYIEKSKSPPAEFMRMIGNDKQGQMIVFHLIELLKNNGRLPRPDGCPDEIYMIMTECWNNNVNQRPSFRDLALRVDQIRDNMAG
- Assay Procedure: phosphorylation enrichment, bacterial display (enrichment ratio); higher = better substrate or ligand; peptides without Tyr show the background
Everything with phosphorylation enrichment lower than 1 is class 0; everything else, including exactly 1, is class 1.

1) KKYPDYIQSAM [SGMS2_Y59_I62S] : class 0
2) RLLRGYDQLAF [HLA-C_Y137_S140L_YF] : class 1
3) QEGPEYWDRNT [HLA-B_Y83] : class 0
4) FFCKFYNKSED [RYR1_Y4864_R4861C] : class 1
5) DTDSSYCIPTA [GAB1_Y373] : class 1
6) QLQTNYPSSDN [MAX_Y115] : class 0
7) LNPDGYKKAFE [CPXM2_Y427_E428K_YF] : class 1
8) PVDVAYRHGFF [PLEC_Y2967_R2969H_YF] : class 0
9) KDFNKYVAFIE [KDM4B_Y31_YF] : class 0
10) KVKPIYLHTQG [AR_Y916_F917L] : class 0
11) KPRKLYTIKKP [BRD2_Y715_P714L] : class 0
12) GLQDEYDFKCK [STAT1_Y170_D165G] : class 1
13) FQGGTYSKACT [FGG_Y380_S384C_YF] : class 0
14) PSRKDYETYQS [CTNND2_Y1154_P1159S] : class 0
15) YALAEYTEVKT [ALDH1A3_Y497] : class 0
16) MFDKEYFSVHN [MET_Y1234_YF] : class 1
17) EAMPDYKKQLR [SPATA18_Y229_S227P] : class 0
18) STEEQYRICQV [EFHC1_Y115_R118C] : class 1
19) SHNELYYEAAE [VANGL1_Y344_E347A] : class 1
20) FTFNSYFMHWV [IGHV1-46_Y51_T49N_YF] : class 1
21) PEVSGYCHCAD [TG_Y234] : class 1
22) SGGSSYGSGGC [KRT1_Y532_G537C] : class 0
23) HTLQLYRCREE [ALPK3_Y342] : class 0
24) INMKKYCKKDY [NTN1_Y490] : class 0
25) QDTSRYTVSNL [BIRC3_Y245] : class 0

* * *

- Test system: AncSZ
- Assay Procedure: phosphorylation enrichment, bacterial display (enrichment ratio); higher = better substrate or ligand; peptides without Tyr show the background
Everything with phosphorylation enrichment lower than 0.9 is Condition not met; everything else, including exactly 0.9, is Condition met.

1. ISPPVYLTNEW [NRK_Y885] : Condition met
2. RFLRGYHQDAY [HLA-A_Y137_R138H] : Condition met
3. RQQEDYLLFKQ [RARRES1_Y159_YF] : Condition met
4. SPYMLYQYLKQ [RPAP3_Y567_D564Y] : Condition met
5. DRLPSYLDKVR [KRT12_Y139_A137P] : Condition not met
6. CCNHPYRINGA [CHD7_Y1256_L1257R] : Condition not met
7. IALNSYHSRNC [IFNGR1_Y397] : Condition not met
8. LDLSYYHTSSS [EMD_Y182_P183H] : Condition met
9. LTFDEYRNNSQ [ANXA3_Y216_I219N] : Condition not met
10. DAGTDYVGISR [FREM2_Y2061] : Condition not met
11. KRLYAYKMLMA [TMC2_Y209_Q205R] : Condition not met
12. FGGRDYSLDEF [MYOF_Y1705_YF] : Condition met
13. GYYDLYGGEKF [PTPN11_Y66_D61G] : Condition met
14. QDGYSYPSRQM [LDLR_Y847] : Condition met
15. EGNEQYEGYCV [GRIA3_Y451_R450Q] : Condition met
16. DAAEDYAEGVC [DHODH_Y194_R199C] : Condition met
17. KRGASYILKLA [SERPINB1_Y84] : Condition met
18. AEQEEYSAMRD [NRAS_Y64_G60E] : Condition met
19. CPFNLYAEQFS [HGD_Y40_L44F_YF] : Condition met
20. KNEKVYTRHGV [FLOT1_Y56_S52N] : Condition not met
21. MLNTNYHLPPS [MT-ATP8_Y33] : Condition not met
22. EMTAEYTCTRK [ACAD9_Y325_A326T] : Condition met
23. CGLPRYRWLTH [TSPAN12_Y143_Y138C] : Condition not met
24. FFCKFYNKSED [RYR1_Y4864_R4861C] : Condition met
25. DPAFGYEDFTR [SESN2_Y323_T320A] : Condition met
26. LLVVLNKFRCF [PSEN1_Y154_Y154N_YF] : Condition met
27. MFDKEYFSVHN [MET_Y1234_YF] : Condition met
28. LAIELYVVVCK [RHO_Y136_R135L] : Condition met
29. YSIDYYRVGGH [NTRK2_Y707_T704I] : Condition met
30. SIVEDYRPPFF [ACVRL1_Y421_G416S_YF] : Condition met
31. PESCFYKESWL [IQGAP2_Y630_L629F] : Condition met
32. SAVTGYRVDVI [FN1_Y937] : Condition not met
33. LDFPEYDGVDR [CASQ1_Y43] : Condition met
34. FVKEPYIQSRF [HIPK4_Y175_YF] : Condition not met
35. RLGDLYKEEMR [VIM_Y150_E151K] : Condition met
36. DRPSEYAARQL [ANXA13_Y90] : Condition not met
37. TGDFGYRAPGF [TNS2_Y668_YF] : Condition not met
38. LENSTYQYIHV [CRB1_Y760_R764H] : Condition met
39. PNLILYGDFRQ [MYH7_Y715_R712L] : Condition met
40. VSAPEYGPKLK [TBC1D14_Y46_L41V] : Condition not met
41. WVYNHYRWIIW [BRCA2_Y2624] : Condition met
